experimental-endpoint: melting point (°C)

- COC(=O)c1ccccc1COC(=O)c1nc(-c2ccc(Cl)c(OC)c2F)c(F)c(N)c1Cl: 161
- COc1c(Cl)ccc(-c2nc(C(=O)OCc3ccc(Cl)cc3)c(Cl)c(N)c2F)c1F: 143
- COc1c(Cl)ccc(-c2nc(C(=O)OCc3ccccc3C)c(Cl)c(N)c2F)c1F: 135

====

Reported melting point by item:

• COc1c(Cl)ccc(-c2nc(C(=O)OCc3ccc([N+](=O)[O-])cc3)c(Cl)c(N)c2F)c1F = 207 to 208 °C
• C=Cc1c(N)nc(-c2ccc(Cl)c(OC)c2F)nc1C(=O)OCc1ccccc1 = 119 to 121 °C

# context switch: different compound, same melting point
INPUT: # lookup: melting point of COc1c(Cl)ccc(-c2nc(C(=O)OCc3ccc(F)cc3)c(Cl)c(N)c2F)c1F
OUTPUT: 143 to 144 °C
